Target: T1, mouse tissue factor pathway inhibitor (TFPI) (mouse, UniProt O54819 29-289, limits assumed)
T1 construct: bought; also called mTFPI; murine TFPI
T1 sequence (looked up): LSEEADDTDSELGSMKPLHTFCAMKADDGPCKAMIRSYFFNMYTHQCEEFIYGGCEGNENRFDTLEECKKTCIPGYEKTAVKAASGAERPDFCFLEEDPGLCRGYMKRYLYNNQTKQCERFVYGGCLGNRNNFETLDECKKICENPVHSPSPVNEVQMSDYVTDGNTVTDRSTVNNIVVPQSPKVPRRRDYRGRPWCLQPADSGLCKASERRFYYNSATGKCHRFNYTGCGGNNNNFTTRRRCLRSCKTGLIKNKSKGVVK
Experiment: competitive ELISA
# variant/wild-type annotations
Use ratio as the unit, but write only the number.

Asked: Item under review: 2A8 HC_S31P (Fab, V domains shown, also called 2A8-2) VH: QVQLVESGGGLVQPGGSLRLSCAASGFTFRPYGMSWVRQAPGKGLEWVSSIRGSSSSTYYADSVKGRFTISRDNSKNTLYLQMNSLRAEDTAVYYCARKYRYWFDYWGQGTLVTVSS VL: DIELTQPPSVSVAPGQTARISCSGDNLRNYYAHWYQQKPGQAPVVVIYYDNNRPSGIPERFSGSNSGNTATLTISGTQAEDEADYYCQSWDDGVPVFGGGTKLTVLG . Reported variant/wild-type?
Given back: 2.4

***
Asked: Item under review: 2A8 LC_A32N (Fab, V domains shown, also called 2A8-11) VH: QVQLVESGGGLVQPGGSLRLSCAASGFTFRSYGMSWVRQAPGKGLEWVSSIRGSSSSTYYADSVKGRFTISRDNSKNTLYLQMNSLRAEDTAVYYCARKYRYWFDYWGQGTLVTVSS VL: DIELTQPPSVSVAPGQTARISCSGDNLRNYYNHWYQQKPGQAPVVVIYYDNNRPSGIPERFSGSNSGNTATLTISGTQAEDEADYYCQSWDDGVPVFGGGTKLTVLG . Reported variant/wild-type?
Given back: 2

Asked: Next binder up: 2A8 LC_D92S (Fab, V domains shown) VH: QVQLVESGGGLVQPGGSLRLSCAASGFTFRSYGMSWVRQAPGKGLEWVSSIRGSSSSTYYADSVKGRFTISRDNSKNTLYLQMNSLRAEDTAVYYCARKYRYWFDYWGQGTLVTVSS VL: DIELTQPPSVSVAPGQTARISCSGDNLRNYYAHWYQQKPGQAPVVVIYYDNNRPSGIPERFSGSNSGNTATLTISGTQAEDEADYYCQSWDSGVPVFGGGTKLTVLG
Given back: 2.6

Asked: Next binder up: 2A8 HC_K99V (Fab, V domains shown, also called 2A8-10) VH: QVQLVESGGGLVQPGGSLRLSCAASGFTFRSYGMSWVRQAPGKGLEWVSSIRGSSSSTYYADSVKGRFTISRDNSKNTLYLQMNSLRAEDTAVYYCARVYRYWFDYWGQGTLVTVSS VL: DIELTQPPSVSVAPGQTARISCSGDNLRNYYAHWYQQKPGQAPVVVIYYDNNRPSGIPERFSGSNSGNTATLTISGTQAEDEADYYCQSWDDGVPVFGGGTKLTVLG
Given back: 3.9

Asked: Next binder up: 2A8 HC_K99L (Fab, V domains shown, also called 2A8-9) VH: QVQLVESGGGLVQPGGSLRLSCAASGFTFRSYGMSWVRQAPGKGLEWVSSIRGSSSSTYYADSVKGRFTISRDNSKNTLYLQMNSLRAEDTAVYYCARLYRYWFDYWGQGTLVTVSS VL: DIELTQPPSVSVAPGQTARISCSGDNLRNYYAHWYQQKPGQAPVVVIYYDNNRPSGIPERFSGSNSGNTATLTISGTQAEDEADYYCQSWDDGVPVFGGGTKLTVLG
Given back: 10.8
